- Tested on: Italian ryegrass (Lolium multiflorum)
- Measurement protocol: Test C pre-/postemergence plant response
- Format: in vivo
- Details: Preemergence, 62 g ai/ha; scale 0 to 100, 0 no effect, 100 complete control
Some compounds, each annotated with its measured Plant response rating, Ryegrass, Italian.

Request: Entry under review: Cc1nn(C)c(=O)c(-n2nc(-c3ccc(Cl)cc3)cc2C)c1O [Compound 15] . Reported Plant response rating, Ryegrass, Italian?
Result: 100

---

Some compounds, each annotated with its measured Plant response rating, Cocklebur.
- System: cocklebur (Xanthium strumarium)
- Measurement protocol: Test B pre-/postemergence plant response
- Format: in vivo
- Details: Preemergence, 31 g ai/ha; 0 to 100 scale, 0 no effect, 100 complete control
Form rule: numeric answer, no unit written next to it.

Known Plant response rating, Cocklebur results, listed for orientation:
>  <Compound>
Cc1nn(C)c(=O)c(-n2nc(-c3ccc(Cl)cc3)cc2C)c1O [Compound 15]

>  <Recorded result>
0

$$$$
>  <Compound>
Cc1ccc(-c2ccc(Cl)cc2)cc1-c1c(O)cnn(C)c1=O [Compound 46]

>  <Recorded result>
0

$$$$
>  <Compound>
CCc1cc(-c2ccc(C(F)(F)F)cc2)nn1-c1c(OC(=O)OC(C)C)cnn(C)c1=O [Compound 12]

>  <Recorded result>
0

$$$$

Request: Entry under review: Cc1cc(-c2ccc(Cl)cc2)nn1-c1c(OC(=O)c2ccccc2Cl)cnn(C)c1=O [Compound 38] . Reported Plant response rating, Cocklebur?
Result: 0

Request: Lookup CCCc1cc(-c2ccc(Cl)cc2)nn1-c1c(O)cnn(C)c1=O [Compound 43]
Result: 0

Request: Lookup Cc1cc(-c2ccc(Cl)cc2)nn1-c1c(OC(=O)CC(C)C)cnn(C)c1=O [Compound 37]
Result: 0

Request: Lookup Cc1cc(-c2ccc(Br)cc2)nn1-c1c(OC(=O)C2CC2)cnn(C)c1=O [Compound 5]
Result: 0

Request: Lookup Cc1cc(-c2ccc(Cl)cc2)nn1-c1c(OC(=O)c2cccs2)cnn(C)c1=O [Compound 52]
Result: 0

Request: Lookup Cc1cc(-c2ccc(Cl)cc2)nn1-c1c(OS(=O)(=O)c2ccccc2)cnn(C)c1=O [Compound 35]
Result: 0
